system: Saccharomyces cerevisiae; assay: protein stability index of tFT-peptide fusion (C-terminal peptide) (PSI (0-1 scale)); higher = more stable (slower turnover); conditions: genetic background: das1 deletion; temperature: 37 C;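 further: PSI is a weighted mean of sequencing reads over stability bins, variants kept only with over 10 reads, mCherry proximal and sfGFP distal, peptide attached via GGGS linker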
Hi all, reminder that labels come from protein stability index, split as low bracket = under 0.5, middle bracket = from 0.5 up to 0.7, high bracket = 0.7 and over

// query Note: place this sequence into its band. Item: "ESCWVSRVGVCR"
// result high bracket

// query Bin this entry: "CWDNTLKTMRQM"
// result high bracket

// query For the record "HCNRRNKIYWYS" , report the class its protein stability index corresponds to.
// result high bracket

// query Please report the category associated with "LLVFWRLWWSLS" , nothing else.
// result low bracket

// query Please indicate the class for "GFRVPVVVGVRG" based on its protein stability index.
// result middle bracket

// query Consider "VYVSRTRPFSLY" . To which protein stability index class does it belong?
// result high bracket

// query Into which category would you place "VFLVGFRVTLDS" ?
// result low bracket

// query Exam item: assign "LFLLYVLVSLFV" to the correct category.
// result low bracket

// query Determine which band this sequence sits in: "SPAIRAILAPAG"
// result middle bracket
